System: U2OS
Protocol Notes: Multiplex assay against U2OS
Assay type: toxicity, cell-based
Setup Conditions: human, 24 h, 10 µM, compound concentration 10 uM, replicate 2
Measurement Type: Total Cell Count
Just the number, please.

| Compound | System | Measurement Type | Measurement |
| --- | --- | --- | --- |
| CNC[C@H](O)c1ccc(O)c(O)c1 [EPINEPHRINE] | U2OS | Total Cell Count | 96 |
| O=C(NCC(=O)N1CC[C@H](N[C@H]2CC[C@@](O)(c3ccc(-c4ncccn4)cn3)CC2)C1)c1cccc(C(F)(F)F)c1 | U2OS | Total Cell Count | 102 |
| CN(C)c1ccnc2sc3c(=O)n(N4CCCCCC4)cnc3c12 | U2OS | Total Cell Count | 108 |

For the compound shown here, CC(=O)NCCc1c(Cc2ccccc2)[nH]c2ccccc12 , give the reported Total Cell Count.
236
